assayedTarget: T1, GFRα4 isoform a (GFRα4a), Fc fusion with 6 His (human)
T1 construct: the entry holds the whole fusion; also called GFR4α4a; immobilized GFRα4 isoform a
T1 chain: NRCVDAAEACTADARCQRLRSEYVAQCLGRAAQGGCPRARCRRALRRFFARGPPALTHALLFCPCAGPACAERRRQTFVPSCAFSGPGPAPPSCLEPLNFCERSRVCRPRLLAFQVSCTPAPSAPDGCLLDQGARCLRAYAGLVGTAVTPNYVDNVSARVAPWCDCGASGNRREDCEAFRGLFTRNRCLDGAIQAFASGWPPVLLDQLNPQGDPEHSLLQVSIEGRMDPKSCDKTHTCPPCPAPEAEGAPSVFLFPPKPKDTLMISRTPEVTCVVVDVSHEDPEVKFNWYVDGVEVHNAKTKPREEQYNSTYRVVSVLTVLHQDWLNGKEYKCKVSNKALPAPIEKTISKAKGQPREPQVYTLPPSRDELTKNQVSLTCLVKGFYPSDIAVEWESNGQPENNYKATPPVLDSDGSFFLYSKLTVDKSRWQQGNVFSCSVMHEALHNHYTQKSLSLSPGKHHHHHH
assayDetails: phage ELISA, immobilized GFRα4a; first token of the cell

binder	binding result
28.H1.L3m5 (scFv, pIII not in the entry; order Vλ-linker-VH; also called scFv 28) scFv: QSALTQPASVSGSPGQSITISCTGTSAHKTYTVSWYQQHPGKAPKLMIYVKSDGSYTKGTGVPNRFSGSSSGADRYLTISGLQAEDEADYYCGADDNGGYVFGGGTQLTVLGGGSSRSSSSGGGGSGGGGQVQLQESGPGLVKPSETLSLTCAVSGYSISRHALTWIRQPPGKGLEWIGAIDNAGTTYYASWAKSRVTISVDTSKNQFSLKLSSVTAADTAVYYCARVFYDINSGYYLDGMDLWGPGTLVTVSS	no binding
22.H1.L1m2 (scFv, pIII not in the entry; order Vλ-linker-VH; also called scFv 22) scFv: QFVLTQSPSASASLGASVKLTCTLSSAHKTYTIDWHQQQPEKGPRYLMQVKSDGSYTKGTGIPDRFSGSSSGAERYLTISSLQSEDEADYYCGADDNGGYVFGGGTQLTVLGGGSSRSSSSGGGGSGGGGQVQLQESGPGLVKPSETLSLTCAVSGYSISRHALTWIRQPPGKGLEWIGAIDNAGTTYYASWAKSRVTISVDTSKNQFSLKLSSVTAADTAVYYCARVFYDINSGYYLDGMDLWGPGTLVTVSS	no binding
16.H1m1.L1m1 (scFv, pIII not in the entry; order Vλ-linker-VH; also called scFv 16) scFv: QFVLTQSPSASASLGASVKLTCTLSSAHKTYTIDWYQQQPEKGPRYLMQVKSDGSYTKGTGVPDRFSGSSSGADRYLTISSLQSEDEADYYCGADDNGGYVFGGGTQLTVTGGGSSRSSSSGGGGSGGGGQQSVKESGPGLVKPSETLSLTCAVSGFSLSRHALTWVRQPPGKGLEWIGAIDNAGTTYYASWAKSRVTISRNTDLHTVSLKLSSVTAADTAVYFCARVFYDINSGYYLDGMDLWGPGTLVTVSS	binds

Taken from patent US20210095036A1.
